- Tested on: Trypanosoma cruzi
- Test protocol: Trypanosoma cruzi phosphomannomutase and mannose-1-phosphate guanylyltransferase assay
- Assay type: functional
- Parameters: scale not given: direction of the effect not stated beside the values
- Applied conditions: 10 µM
Give Percent Effect for every item shown.

Exercise: Please report the recorded Percent Effect for CC(=O)NC1CCCN(C(=O)NCc2cccnc2-n2cccn2)C1 (centres undefined) .
Solution: -6.22%

Exercise: Let us now turn to CCc1nc(CN2CCN(C(=O)C3CCCCC3)CC2)cs1
Solution: 7.23%

Exercise: Next molecule up: COCC1CC2(CCN(Cc3ccc(OC)cc3)CC2)CN1C(C)C (centres undefined)
Solution: -1.66%

Exercise: Would you mind doing CC(Cn1cccn1)NC(=O)Cc1cccs1 (centres undefined) as well?
Solution: 3.41%

Exercise: CCn1cc(CN2CCCC(c3[nH]ncc3S(C)(=O)=O)C2)cn1 (centres undefined) , same question.
Solution: 2.56%

Exercise: Repeat for the following molecule: O=C(Cc1n[nH]c2ccccc12)N1CCC(Nc2cccnn2)CC1
Solution: 3.36%

Exercise: Also check Cn1cc(CN2CCC3(CC2)CC(c2ccncc2)C(=O)N3)cn1 (centres undefined)
Solution: -5.36%

Exercise: And then CN1CC(c2ccccc2)CC2(CCN(CC(=O)N(C)C)CC2)C1 (centres undefined) , what is it?
Solution: 8.44%

Exercise: Please give the result for COCc1nc(C(=O)N2CCCC(n3cccn3)C2)cs1 (centres undefined) too.
Solution: -4.29%

Exercise: Consider next the molecule O=C(NCC(=O)N1CCCCC1)c1ccoc1 in the same way.
Solution: -7.46%

Exercise: Same for CC(=O)N1CCC(c2cc(C(F)(F)F)n3ccnc3n2)CC1
Solution: 0.789%

Exercise: Likewise for Cc1ccn(-c2cccc(C(=O)N3CCCC(n4ccnc4C)C3)c2)n1 (centres undefined) ?
Solution: -9.7%

Exercise: And the next one, Cc1ncc(-c2ccnc(N3CCN(C)CC3)n2)c(-c2cccnc2)n1 ?
Solution: -9.24%

Exercise: What do we get for COc1ccc(CNC(=O)N2CCC(Cc3cnn(C)c3)C2)cc1C (centres undefined) ?
Solution: 8.36%

Exercise: Please answer likewise for COC(=O)COc1cccc(NS(=O)(=O)c2cc(C(=O)O)cs2)c1
Solution: 4.41%

Exercise: Same read-out for CN(C)CC(=O)N1CCC2(CC1)COC(COc1ccccn1)C2 (centres undefined) ?
Solution: 2.82%

Exercise: Same thing, different molecule: N#Cc1ccccc1C(=O)N1C[C@H](CO)C[C@H](CN2CCCC2)C1
Solution: 6.69%

Exercise: How about this molecule: O=C1C[C@H]2[C@@H](CCN2C(=O)Cc2cccs2)N1Cc1cccnc1
Solution: -1.31%

Exercise: What about this molecule? Clc1ccccc1-c1nc(CNC2CCc3ncnn3C2)cs1 (centres undefined)
Solution: 4.6%

Exercise: Would you kindly repeat that for CN(C(=O)CN1CCOC(Cn2cccn2)C1)c1nccs1 (centres undefined) ?
Solution: 4.29%

Exercise: // same read-out, input: c1ccc(Cn2ccnc2CN2CCCC2c2noc(C3CC3)n2)cc1 (centres undefined)
Solution: -5.22%

Exercise: Also, COc1cccc(CN2CCCC3(CCN(C(=O)c4ccco4)C3)C2)c1 (centres undefined) please.
Solution: 0.563%

Exercise: Another molecule: CC(NC(=O)NCc1cccc(Cl)c1)(C(=O)O)c1ccco1 (centres undefined)
Solution: 5.32%

Exercise: Query CCc1nc(CN(C)C2CCN(CCNS(=O)(=O)CC)C2)no1 (centres undefined) next
Solution: -6.83%
